The reported measurements were obtained from paper PMC6338582.

subject of test: rA1M (recombinant human α1-microglobulin; rA1M-wt and rA1M-035) (Homo sapiens, UniProt P02760)
Sequence (P02760 20-202): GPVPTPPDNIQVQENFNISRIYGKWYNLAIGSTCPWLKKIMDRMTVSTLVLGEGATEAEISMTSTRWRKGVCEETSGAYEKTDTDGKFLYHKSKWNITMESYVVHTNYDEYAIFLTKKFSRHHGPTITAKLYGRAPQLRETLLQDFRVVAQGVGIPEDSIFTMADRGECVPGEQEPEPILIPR
protocol text: SPR (BIAcore X100), rA1M captured on immobilized anti-His antibody
quantity name: Kd (µM)

[[record]]
molecule = "C=CC1=C(C)C2=Cc3c(C=C)c(C)c4[n]3[Fe]([Cl])[n]3c(c(C)c(CCC(=O)O)c3=CC3=NC(=C4)C(C)=C3CCC(=O)O)=CC1=N2 [heme]"
quantity_name = "Kd"
reading = 15.8


###

subject of test: rA1M (recombinant human α1-microglobulin; rA1M-wt and rA1M-035) (Homo sapiens, UniProt P02760, N115D/N36D/R85H)
Sequence (P02760 20-202 N36D/R85H/N115D): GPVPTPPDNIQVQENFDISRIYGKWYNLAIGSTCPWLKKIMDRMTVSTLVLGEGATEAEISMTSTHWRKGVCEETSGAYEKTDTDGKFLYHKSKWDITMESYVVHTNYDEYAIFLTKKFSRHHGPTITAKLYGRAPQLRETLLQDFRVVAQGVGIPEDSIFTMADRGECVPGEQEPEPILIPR
protocol text: SPR (BIAcore X100), rA1M captured on immobilized anti-His antibody
quantity name: Kd

[[record]]
molecule = "C=CC1=C(C)C2=Cc3c(C=C)c(C)c4[n]3[Fe]([Cl])[n]3c(c(C)c(CCC(=O)O)c3=CC3=NC(=C4)C(C)=C3CCC(=O)O)=CC1=N2 [heme]"
reading = "4.45 µM"

